- methodDescription: Critical micellar concentration of the compound
Outcome label depends on CMC relative to 5000 µM: at/above gives satisfied, below gives not satisfied.

Worked examples follow.
| compound | category |
| --- | --- |
| CCCCCCCCCCS(=O)(=O)[O-].[Na+] | satisfied |
| CCCCCCCCCCCCCCS(=O)(=O)[O-].[Na+] | not satisfied |
| CCCCCCCCCCCCCCCCCCOS(=O)(=O)[O-].[Na+] [SODIUM OCTADECYL SULFATE] | not satisfied |
| CCCCCCCCS(=O)(=O)[O-].[Na+] | satisfied |
| CCCCCCCCCCOS(=O)(=O)[O-].[Na+] [SODIUM DECYL SULFATE] | satisfied |

Problem: Check the entry CCCCCCCCCCCCCOS(=O)(=O)[O-].[Na+] [SODIUM TRIDECYL SULFATE] : does CMC equal or exceed 5000 µM?
Result: not satisfied

Problem: How about CCCCCCCC(=O)[O-].[Na+] [SODIUM CAPRYLATE] ?
Result: satisfied

Problem: How about CCCCCCCCOS(=O)(=O)[O-].[Na+] [SODIUM OCTYL SULFATE] ?
Result: satisfied

Problem: How about CCCCCCCCCCCC(=O)[O-].[Na+] [SODIUM DODECANOATE] ?
Result: not satisfied

Problem: How about CCCCCCCCCCCCOS(=O)(=O)[O-].[Na+] [SODIUM LAURYL SULFATE] ?
Result: not satisfied

Problem: How about CCCCC(CC)CCC(CC(C)C)OS(=O)(=O)[O-].[Na+] (stereo not drawn) [SODIUM TETRADECYL SULFATE] ?
Result: not satisfied

Hey, just so you know, these numbers are from ChEMBL document CHEMBL1158461.
